assay: Antiplatelet activity in rabbit platelets assessed as inhibition of ADP-induced platelet aggregation at 200 uM by aggregometer; assay type: functional, Oryctolagus cuniculus; set-up: scale not given: the % may be the effect or the level left
Parameter: Activity (%)
// units = %; emit number, no label

In: Consider the compound `COc1ccc(C(=O)N2CCN(Cc3nc(C)c(C)nc3C)CC2)cc1` and give its recorded Activity.
Out: 26.06

In: Consider the compound `Cc1nc(C)c(CN2CCN(C(=O)C(C)(C)Oc3ccc(Cl)cc3)CC2)nc1C` and give its recorded Activity.
Out: 13.68

In: Consider the compound `COc1cccc(/C=C/C(=O)N2CCN(Cc3nc(C)c(C)nc3C)CC2)c1OC` and give its recorded Activity.
Out: 8.78

In: Consider the compound `COc1cc(/C=C/C(=O)N2CCN(Cc3nc(C)c(C)nc3C)CC2)ccc1OC(C)=O` and give its recorded Activity.
Out: 5.84

In: Consider the compound `COc1ccc(/C=C/C(=O)N2CCN(Cc3nc(C)c(C)nc3C)CC2)cc1OC` and give its recorded Activity.
Out: 6.13

In: Consider the compound Cc1nc(C)c(C)nc1C [LIGUSTRAZINE] and give its recorded Activity.
Out: 7.86

In: Consider the compound `Cc1nc(C)c(CN2CCN(S(C)(=O)=O)CC2)nc1C` and give its recorded Activity.
Out: 33.51

In: Consider the compound `Cc1nc(C)c(CN2CCN(C(=O)C(=O)c3ccccc3)CC2)nc1C` and give its recorded Activity.
Out: 26.11

In: Consider the compound `COc1ccc(OC)c(/C=C/C(=O)N2CCN(Cc3nc(C)c(C)nc3C)CC2)c1` and give its recorded Activity.
Out: 9.78

In: Consider the compound `COc1cc(C(=O)N2CCN(Cc3nc(C)c(C)nc3C)CC2)cc(OC)c1OC` and give its recorded Activity.
Out: 14.26

In: Consider the compound `Cc1nc(C)c(CN2CCN(C(=O)Cc3ccccc3)CC2)nc1C` and give its recorded Activity.
Out: 25.59

In: Consider the compound `Cc1nc(C)c(CN2CCN(C(=O)c3ccccc3O)CC2)nc1C` and give its recorded Activity.
Out: 16.71

----------
assay: Antiplatelet activity in rabbit platelets assessed as inhibition of ADP-induced platelet aggregation at 200 uM by aggregometer; assay type: functional, Oryctolagus cuniculus; parameters: scale not given: the % may be the effect or the level left
Please provide measured Activity for the entries that follow.
Remember to put the unit after the number in your answer.

In: Consider the molecule `Cc1nc(C)c(CN2CCN(C(=O)Cc3ccc([N+](=O)[O-])cc3)CC2)nc1C` and give its recorded Activity.
Out: 18.24%

In: Consider the molecule `COc1ccccc1C(=O)N1CCN(Cc2nc(C)c(C)nc2C)CC1` and give its recorded Activity.
Out: 24.27%

In: Consider the molecule `Cc1nc(C)c(CN2CCN(C(=O)c3ccccc3)CC2)nc1C` and give its recorded Activity.
Out: 28.46%

In: Consider the molecule `Cc1nc(C)c(CN2CCN(C(=O)c3cccc(Cl)c3)CC2)nc1C` and give its recorded Activity.
Out: 24.74%

In: Consider the molecule `Cc1nc(C)c(CN2CCN(C(=O)c3ccco3)CC2)nc1C` and give its recorded Activity.
Out: 21.76%

In: Consider the molecule `Cc1ccc(S(=O)(=O)N2CCN(Cc3nc(C)c(C)nc3C)CC2)cc1` and give its recorded Activity.
Out: 25.13%

In: Consider the molecule `CC(=O)Oc1ccccc1C(=O)N1CCN(Cc2nc(C)c(C)nc2C)CC1` and give its recorded Activity.
Out: 3.02%

In: Consider the molecule `Cc1nc(C)c(CN2CCN(C(=O)CCl)CC2)nc1C` and give its recorded Activity.
Out: 24.89%

In: Consider the molecule `COc1ccc(C(=O)N2CCN(Cc3nc(C)c(C)nc3C)CC2)cc1OC` and give its recorded Activity.
Out: 29.06%

In: Consider the molecule `CCOC(=O)N1CCN(Cc2nc(C)c(C)nc2C)CC1` and give its recorded Activity.
Out: 15.25%

In: Consider the molecule `Cc1nc(C)c(CN2CCN(C(=O)c3ccncc3)CC2)nc1C` and give its recorded Activity.
Out: 6.07%

In: Consider the molecule `Cc1nc(C)c(CN2CCN(C(=O)c3ccc(Cl)cc3Cl)CC2)nc1C` and give its recorded Activity.
Out: 16.08%

In: Consider the molecule `Cc1nc(C)c(CN2CCN(C(=O)/C=C/c3cccc([N+](=O)[O-])c3)CC2)nc1C` and give its recorded Activity.
Out: 13.07%

In: Consider the molecule `Cc1nc(C)c(CN2CCN(S(=O)(=O)c3ccccc3)CC2)nc1C` and give its recorded Activity.
Out: 24.49%

In: Consider the molecule `Cc1nc(C)c(CN2CCN(C(=O)c3ccc(Cl)cc3)CC2)nc1C` and give its recorded Activity.
Out: 25.62%

In: Consider the molecule `Cc1nc(C)c(CN2CCN(C(=O)c3ccccc3Cl)CC2)nc1C` and give its recorded Activity.
Out: 27.24%

In: Consider the molecule `Cc1nc(C)c(CN2CCN(C(=O)c3cc([N+](=O)[O-])cc([N+](=O)[O-])c3)CC2)nc1C` and give its recorded Activity.
Out: 15.67%

In: Consider the molecule `Cc1nc(C)c(CN2CCN(C(=O)CCc3ccccc3)CC2)nc1C` and give its recorded Activity.
Out: 13.29%

In: Consider the molecule `Cc1nc(C)c(CN2CCN(C(=O)c3cccnc3)CC2)nc1C` and give its recorded Activity.
Out: 5.08%

In: Consider the molecule `Cc1nc(C)c(CN2CCN(C(=O)c3ccccc3I)CC2)nc1C` and give its recorded Activity.
Out: 25.45%

In: Consider the molecule `Cc1nc(C)c(CN2CCN(C(=O)c3ccc([N+](=O)[O-])cc3)CC2)nc1C` and give its recorded Activity.
Out: 28.64%

In: Consider the molecule `Cc1nc(C)c(CN2CCN(C(=O)c3ccc(I)cc3)CC2)nc1C` and give its recorded Activity.
Out: 25.17%
